Molecular target: Lysine-specific demethylase 4A (Homo sapiens)
Assay: qHTS Assay for Inhibitors of JMJD2A-Tudor Domain; further: nearly all actives have a fitted effect of over 50% in size
Settings: AlphaScreen JMJD2A-Tudor / H3K4me3 peptide binding; series mostly up to 114 µM
Out of some 390,000 compounds screened, about 17,000 (4.4%) were called active. Roughly 8% stayed inconclusive and do not appear here. The call rests on the fitted dose curve; in most records, active means well fitted inhibition curve with a large enough effect; inconclusive means small, poorly fitted or top-dose-only effect; inactive means no such curve, though single readings can be large or run the other way. This excerpt belongs to a sample that is enriched for actives.
Return exactly one item of active, inactive

Incoming: Assay result, entry CCc1cc2c(cc3c(=O)n(CC(=O)N4CCN(c5cc(Cl)ccc5C)CC4)nc(CC)n32)s1 — outcome?
Outgoing: inactive

###

Biological target: Lysine-specific demethylase 4A (Homo sapiens) (UniProt O75164)
Sequence (O75164 whole entry, looked up, the tested form may be a part): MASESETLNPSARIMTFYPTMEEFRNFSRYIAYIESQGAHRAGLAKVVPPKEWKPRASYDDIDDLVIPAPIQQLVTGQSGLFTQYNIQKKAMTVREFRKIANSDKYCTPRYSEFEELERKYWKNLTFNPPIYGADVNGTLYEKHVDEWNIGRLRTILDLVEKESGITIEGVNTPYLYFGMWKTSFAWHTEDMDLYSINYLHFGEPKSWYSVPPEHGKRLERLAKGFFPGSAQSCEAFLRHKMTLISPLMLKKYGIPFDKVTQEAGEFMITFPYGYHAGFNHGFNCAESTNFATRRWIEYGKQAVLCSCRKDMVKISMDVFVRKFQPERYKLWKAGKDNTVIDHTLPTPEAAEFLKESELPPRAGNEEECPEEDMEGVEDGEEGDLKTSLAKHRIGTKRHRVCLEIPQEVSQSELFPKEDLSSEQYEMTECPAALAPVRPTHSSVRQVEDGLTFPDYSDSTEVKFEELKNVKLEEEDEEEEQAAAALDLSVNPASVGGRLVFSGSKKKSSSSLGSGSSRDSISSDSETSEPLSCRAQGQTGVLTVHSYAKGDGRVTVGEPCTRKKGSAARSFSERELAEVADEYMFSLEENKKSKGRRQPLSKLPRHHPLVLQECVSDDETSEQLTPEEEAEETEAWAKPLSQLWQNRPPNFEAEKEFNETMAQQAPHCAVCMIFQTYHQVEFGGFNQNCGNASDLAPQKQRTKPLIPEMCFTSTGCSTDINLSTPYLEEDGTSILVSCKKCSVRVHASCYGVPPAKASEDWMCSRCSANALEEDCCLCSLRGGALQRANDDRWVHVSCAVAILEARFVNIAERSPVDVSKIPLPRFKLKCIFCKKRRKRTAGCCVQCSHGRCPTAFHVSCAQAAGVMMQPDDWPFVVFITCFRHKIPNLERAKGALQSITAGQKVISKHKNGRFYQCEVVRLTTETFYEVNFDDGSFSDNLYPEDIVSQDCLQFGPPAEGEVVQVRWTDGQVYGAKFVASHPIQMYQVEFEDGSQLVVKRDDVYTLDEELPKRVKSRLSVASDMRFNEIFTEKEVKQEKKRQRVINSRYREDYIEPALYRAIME
Assay: qHTS Assay for Inhibitors of JMJD2A-Tudor Domain; further: nearly all actives have a fitted effect of over 50% in size
Conditions: AlphaScreen JMJD2A-Tudor / H3K4me3 peptide binding; series mostly up to 114 µM
The campaign covered roughly 390,000 compounds. About 17,000 (4.4%) were called active. About 8% were inconclusive and are not listed. Calls follow the shape of the dose curve; as a rule, active = well fitted inhibition curve with a large enough effect; inconclusive = small, poorly fitted or top-dose-only effect; inactive = no such curve, though single readings can be large or run the other way. This is one part of a sample in which actives are shown more often than they occur.
Hi! Could you answer with just one of these? active, inactive

Incoming: Hey, what did the test say about Cc1cc2n(n1)C(c1cc(C(C)(C)C)c(O)cc1O)Nc1ccccc1-2 (stereo not drawn) ?
Outgoing: inactive

Incoming: Called result for Cc1sc2nc(CSCC(=O)NC3CCCCC3)[nH]c(=O)c2c1C
Outgoing: inactive

Incoming: Per the records of this test, what outcome belongs to Cc1[nH]c(N)nc(=S)c1CCCNc1ccccc1 ?
Outgoing: active

###

Target: Lysine-specific demethylase 4A (Homo sapiens) (UniProt O75164)
Assay: qHTS Assay for Inhibitors of JMJD2A-Tudor Domain; further: nearly all actives have a fitted effect of over 50% in size
Details: AlphaScreen JMJD2A-Tudor / H3K4me3 peptide binding; series mostly up to 114 µM
In all, about 390,000 compounds went through this assay and about 17,000 (4.4%) were called active. Inconclusive results (about 8%) are left out. Calls follow the shape of the dose curve; as a rule, active = well fitted inhibition curve with a large enough effect; inconclusive = small, poorly fitted or top-dose-only effect; inactive = no such curve, though single readings can be large or run the other way. Only a selection was taken, and actives are over-represented in it overall.
Result category, one only: True = active, False = inactive

Reference set, count: 6
COMPOUND	DISCRETE LABEL
COc1cc(OC)c(C(=O)Nc2ccc(N(C)C)cc2)cc1OC	True
Cc1ccc(NC(=O)NNC(=O)c2sccc2-n2cccc2)cc1	False
CC[C@@H](C)[C@@H](C(=O)N1CCN(C(=O)OC(C)(C)C)CC1)n1cc(CCC(=O)O)nn1	False
CN(C)c1ccc(C(CNS(=O)(=O)c2cc(F)ccc2F)N2CCOCC2)cc1 (stereo not given)	False
CC(=O)Nc1nc(N(C)C)nc(N(C)C)n1	False
O=C(Nc1nnc(-c2ccco2)o1)c1ccc(S(=O)(=O)N2CCOCC2)cc1	True

Incoming: Please state the recorded outcome for this compound: COc1ccc(NC(=O)c2ccc3nc(C(C)C)oc3c2)cc1OC
Outgoing: False

Incoming: Recorded test outcome, item Cc1sc2ncn(CC(=O)N3CCN(c4ccc(F)cc4)CC3)c(=O)c2c1S(=O)(=O)N1CCN(c2ncccn2)CC1
Outgoing: False

Incoming: Any idea what this test logged for CCOc1ccc(C(=O)CCN2CCOCC2)cc1 ?
Outgoing: False

Incoming: Could you kindly confirm the outcome this assay logged for COc1ccc(Cl)cc1C(=O)Nc1ccc(N(C)C(C)=O)cc1 ?
Outgoing: False

Incoming: Kindly provide the recorded test outcome for the following compound: COc1ccc(-c2cn3c(n2)sc2cc(C(=O)Nc4ccc(F)cc4)ccc23)cc1
Outgoing: False
